Origin of values: BindingDB's records for doi:10.1021/jm0303352

# protocol_details: In vitro antimalarial activity against Plasmodium falciparum Csl-2 triple DHFR mutant (C59R/S108N/I164L) relative to trimethoprim
measurement_kind: IC50 ratio
One number for each entry.

>  <molecule>
CCc1nc(N)nc(N)c1Cc1ccc(OCc2ccccc2)c(OC)c1

>  <IC50 ratio>
0.05

$$$$

Below is a list of compounds. For each, state its recorded IC50 ratio.
1. COc1cc(Cc2cnc(N)nc2N)ccc1OCc1cc(OC)c(OC)c(OC)c1
2. COc1cc(Cc2c(C)nc(N)nc2N)ccc1OCc1ccccc1
3. COc1ccc(Cc2cnc(N)nc2N)cc1OCc1ccccc1

1. 0.26
2. 0.02
3. 0.05

----------
# protocol_details: In vitro antimalarial activity against Plasmodium falciparum K1CB1 double DHFR mutant (C59R/S108N)
measurement_kind: IC50 (µM)
Give bare numbers, in µM.

Example entries and their recorded answers appear below.
>  <molecule>
COc1cc(Cc2cnc(N)nc2N)ccc1OCc1cc(OC)c(OC)c(OC)c1

>  <measurement_units>
µM

>  <IC50>
27.8

$$$$
>  <molecule>
COc1cc(Cc2c(C)nc(N)nc2N)ccc1OCc1ccccc1

>  <measurement_units>
µM

>  <IC50>
25.2

$$$$

Report IC50 for every entry below.
1. COc1ccc(Cc2cnc(N)nc2N)cc1OCc1ccccc1
2. CCc1nc(N)nc(N)c1Cc1ccc(OCc2ccccc2)c(OC)c1

1. 3.83
2. 16.3

----------
# protocol_details: In vitro antimalarial activity against Plasmodium falciparum TM4/8.2 wtDHFR
measurement_kind: IC50 (µM)
Give bare numbers, in µM.

Solved entries:
>  <molecule>
CCc1nc(N)nc(N)c1Cc1ccc(OCc2ccccc2)c(OC)c1

>  <measurement_kind>
IC50

>  <measurement_units>
µM

>  <measured_result>
5.06

$$$$
>  <molecule>
COc1cc(Cc2c(C)nc(N)nc2N)ccc1OCc1ccccc1

>  <measurement_kind>
IC50

>  <measurement_units>
µM

>  <measured_result>
6.84

$$$$
>  <molecule>
COc1cc(Cc2cnc(N)nc2N)ccc1OCc1cc(OC)c(OC)c(OC)c1

>  <measurement_kind>
IC50

>  <measurement_units>
µM

>  <measured_result>
0.31

$$$$

Can you look up the measured IC50 of COc1ccc(Cc2cnc(N)nc2N)cc1OCc1ccccc1 for me? 17.5

----------
Please go through the items and note down their IC50 ratio.
# protocol_details: In vitro antimalarial activity relative to trimethoprim against Plasmodium falciparum TM4/8.2 wtDHFR
Give bare numbers.

Examples with answers:
>  <molecule>
COc1cc(Cc2c(C)nc(N)nc2N)ccc1OCc1ccccc1

>  <IC50 ratio>
1.03

$$$$
>  <molecule>
CCc1nc(N)nc(N)c1Cc1ccc(OCc2ccccc2)c(OC)c1

>  <IC50 ratio>
0.76

$$$$
>  <molecule>
COc1ccc(Cc2cnc(N)nc2N)cc1OCc1ccccc1

>  <IC50 ratio>
2.62

$$$$

Now consider the entry below.
I have this compound here, COc1cc(Cc2cnc(N)nc2N)ccc1OCc1cc(OC)c(OC)c(OC)c1 , and I need its recorded IC50 ratio. 0.05

----------
# protocol_details: In vitro antimalarial activity against Plasmodium falciparum Vl/S with quadruple DHFR mutant (N51I/C59R/S108N/I164L)
So I've got a bunch of molecules here, and I need their pIC50 values.
Numbers only, as −log10 of the molar value.

These recorded examples may help you get a feel for the data.
>  <molecule>
COc1cc(Cc2c(C)nc(N)nc2N)ccc1OCc1ccccc1

>  <measurement_kind>
pIC50

>  <measured_result>
5.32

$$$$
>  <molecule>
CCc1nc(N)nc(N)c1Cc1ccc(OCc2ccccc2)c(OC)c1

>  <measurement_kind>
pIC50

>  <measured_result>
4.95

$$$$

Lab note: next molecule to report on.
What value of pIC50 has been recorded for this entry: COc1cc(Cc2cnc(N)nc2N)ccc1OCc1cc(OC)c(OC)c(OC)c1 4.58

----------
Assign IC50 ratio to each entry below.
# protocol_details: In vitro antimalarial activity against Plasmodium falciparum K1CB1 double DHFR mutation (C59R/S108N) relative to trimethoprim
Numbers only.

>  <molecule>
COc1cc(Cc2c(C)nc(N)nc2N)ccc1OCc1ccccc1

>  <IC50 ratio>
0.18

$$$$
>  <molecule>
COc1ccc(Cc2cnc(N)nc2N)cc1OCc1ccccc1

>  <IC50 ratio>
0.03

$$$$
>  <molecule>
COc1cc(Cc2cnc(N)nc2N)ccc1OCc1cc(OC)c(OC)c(OC)c1

>  <IC50 ratio>
0.13

$$$$

Now consider the entry below.
For CCc1nc(N)nc(N)c1Cc1ccc(OCc2ccccc2)c(OC)c1 , what is its reported IC50 ratio? 0.12

----------
# protocol_details: In vitro antimalarial activity against Plasmodium falciparum Csl-2 triple DHFR mutant (C59R/S108N/I164L)/
Please go through the items and note down their IC50.
Give bare numbers, in µM.

Please give IC50 for each item listed below.
1. COc1cc(Cc2cnc(N)nc2N)ccc1OCc1cc(OC)c(OC)c(OC)c1
2. CCc1nc(N)nc(N)c1Cc1ccc(OCc2ccccc2)c(OC)c1
3. COc1cc(Cc2c(C)nc(N)nc2N)ccc1OCc1ccccc1
4. COc1ccc(Cc2cnc(N)nc2N)cc1OCc1ccccc1

1. 30.6
2. 5.37
3. 2.85
4. 5.73
